Consider the following binders and their measured GEO mean difference readings.
- Study System: T1, canine OX40L, full length membrane form, expressed on HEK293 cells (canine)
- T1 construct: also called OX40L expressing HEK; HEK OX40L cells
- T1 chain: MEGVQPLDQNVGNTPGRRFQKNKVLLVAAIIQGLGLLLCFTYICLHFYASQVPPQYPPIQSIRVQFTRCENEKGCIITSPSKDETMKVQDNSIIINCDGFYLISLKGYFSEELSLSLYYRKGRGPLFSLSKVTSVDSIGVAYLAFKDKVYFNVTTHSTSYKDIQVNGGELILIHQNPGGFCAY
- Assay Summary: flow cytometry, OX40L HEK minus WT HEK
Assay Endpoint: GEO mean difference

INSERT INTO assay_data (binder, meas_value) VALUES
  ('PMX063 (antibody, V domains shown, also called PMX63) VH: EVQLVESGGDLVRPGGSLRLSCVASGFTFNNYHMSWVRQAPGKGLQWVAFINSGGSGTTFADVVRGRFTISRDYAKNALYLQMNSLRAEDTAVYYCASGSIWTHFDYWGQGTLVTVSS VL: SFVLTQLPSVSVTLRQTARITCGGDIIGSKNVYWYQQRLGQAPVLIIYRDNNRPTGIPERFSGASSGNTATLTISGALAEDEADYYCQVWDNSNKAMFGGGTHLTVL', '3.15e+06'),
  ('PMX294 (antibody, V domains shown) VH: EVQLVESGGDLVKPEGSLRLSCAVSGFTFSSNDMSWVRQAPGKGLQWVAYITYDGRSTSYTDIVKGRFTVSRDNAKNTLYLQMNSLRSEDAAVYYCAKAQRGWFFDYWGQGTLVTVSS VL: SYVLTQLPSVSVTLRQTARITCGGDSIGSKNVYWYQQKLGQAPVLIIYDDDSRPSGIPERISGANSGNTATLTISGALAEDEADYYCQVWDSSTGVFGGGTHLTVL', 591000);
